# Tested on: SK-MEL-28 melanoma
# test-details: NCI-60 one-dose screen, 48 h
# condition-set: 10 µM unless noted
About 83,000 compounds went through this panel and 20% of them were active in at least one assay; those are over-represented in the sample as a whole. Calls of active or inactive are those of the source. The calls were made as follows: active = growth percent below 10; inactive = the rest.
Lab note: assign the record to one of active, inactive

* CN(C)c1ccc(/C=N/NC(=O)CSc2nc3sc4c(c3c(=O)n2-c2ccccc2)CCCCC4)cc1 | inactive
* NC(=N\N=C/c1ccc(Cl)cc1Cl)/C(N)=N\N=C/c1ccc(Cl)cc1Cl | inactive
* O=C(CSc1nnc(-c2ccc(Cl)c(Cl)c2)n1-c1ccccc1)Nc1ccc(C(=O)/C=C/c2ccc(Cl)cc2)cc1 | inactive
* C=C(C)Cn1c(SCC(=O)c2cccs2)nc2sc3c(c2c1=O)CCCC3 | inactive
* O=c1c(/C=C/c2c(O)ccc3ccccc23)nnc2sc(-c3cccc([N+](=O)[O-])c3)nn12 | inactive

Please state the recorded outcome for this compound: O=C(Nc1cccc(Cn2c(=O)[nH]c3ccc(Oc4ncccn4)cc3c2=O)c1)c1cccc(Cl)c1
inactive

Please state the recorded outcome for this compound: C=C1C(=O)O[C@H]2[C@H]1CC/C(CNC(=O)/C=C/c1cc(OC)c(OC)c(OC)c1)=C\CC[C@@]1(C)O[C@@H]21
active

Please state the recorded outcome for this compound: CN1CCN(Cc2ccc(NC(=O)c3cncc(C#Cc4c(N)ncc5c(F)cccc45)c3)cc2C(F)(F)F)CC1
active
